# PROCEDURE SUMMARY: In vivo bioavailability study, oral capsules, plasma levels by LC-MS
# REPORTED CONDITIONS: dog; analyte Flu in plasma; oral capsule with 200 mg Flu, fasted Beagle dogs, n=5
ATTRIBUTE MEASURED: Cmax

compound="COC(=O)Nc1nc2cc(C(=O)c3ccc(F)cc3)ccc2[nH]1 [Flu, Flubendazole]" result="1.2 ng/mL"

* * *

# PROCEDURE SUMMARY: In vivo bioavailability study, oral capsules, plasma levels by LC-MS
# REPORTED CONDITIONS: dog; analyte Flu in plasma; oral capsule with 200 mg Flu, fasted Beagle dogs, n=5
# Description: Capsules of a 00 size were filled with either 50 wt % Flu-PEtOx nanofibrous material or with pure crystalline Flu. Each capsule contained 200 mg of Flu. […] Plasma samples were stored at −20° C. until analyzed using an LC-MS method. A […] flubendazole nanofibrous amorphous solid dispersion was obtained by the solution electrospinning of PEtOx and Flu in a formic acid solvent system. […] Concentrations of Flu and its two metabolites, H-Flu and R-Flu, were monitored.
ATTRIBUTE MEASURED: Tmax

structure_as_smiles=COC(=O)Nc1nc2cc(C(=O)c3ccc(F)cc3)ccc2[nH]1 result="1 h"
